System: acetic acid-induced abdominal writhing
Test: acetic acid-induced abdominal writhing assay (peripheral analgesic)
Type: in vivo, mice
Settings: % inhibition/protection compared to indomethacin
Could you please report measured Potency for the items listed next?
Please give a number only; it is taken to be in %.

Ask: Given the entry Cc1ccc(-n2cc(COC(=O)C(C)c3ccc(CC(C)C)cc3)nn2)cc1 (centres unmarked) [Compound 5d] , report its measured Potency.
Result: 114.9

Ask: Given the entry C#CCOC(=O)C(C)c1ccc(CC(C)C)cc1 (centres unmarked) [Compound 3] , report its measured Potency.
Result: 100.0

Ask: Given the entry COc1ccc2c(c1)c(CC(=O)OCc1cn(-c3ccc(Cl)cc3)nn1)c(C)n2C(=O)c1ccc(Cl)cc1 [Compound 8b] , report its measured Potency.
Result: 64.5

Ask: Given the entry CC(C)Cc1ccc(C(C)C(=O)OCc2cn(-c3ccc(F)cc3)nn2)cc1 (centres unmarked) [Compound 5c] , report its measured Potency.
Result: 116.0

Ask: Given the entry COc1ccc2c(c1)c(CC(=O)OCc1cn(-c3ccc([N+](=O)[O-])cc3)nn1)c(C)n2C(=O)c1ccc(Cl)cc1 [Compound 8g] , report its measured Potency.
Result: 134.1

Ask: Given the entry COc1ccc2c(c1)c(CC(=O)OCc1cn(-c3ccccc3OC)nn1)c(C)n2C(=O)c1ccc(Cl)cc1 [Compound 8e] , report its measured Potency.
Result: 112.5

Ask: Given the entry CC(C)Cc1ccc(C(C)C(=O)O)cc1 (centres unmarked) [Ibu, Ibuprofen, reference compound] , report its measured Potency.
Result: 81.5

Ask: Given the entry CC(C)Cc1ccc(C(C)C(=O)OCc2cn(-c3ccc([N+](=O)[O-])cc3)nn2)cc1 (centres unmarked) [Compound 5g] , report its measured Potency.
Result: 90.5

====

Tested on: acetic acid-induced abdominal writhing
Assay: acetic acid-induced abdominal writhing assay (peripheral analgesic)
Type: in vivo, mice
Settings: 10 mg/kg indomethacin mol equivalent i.p.
ASSAY ENDPOINT: % Inhibition/Protection (%)
Please give a number only; it is taken to be in %.

Ask: Given the entry CC(C)Cc1ccc(C(C)C(=O)OCc2cn(-c3ccccc3Cl)nn2)cc1 (centres unmarked) , report its measured % Inhibition/Protection.
Result: 83.3

Ask: Given the entry CC(C)Cc1ccc(C(C)C(=O)OCc2cn(-c3ccc(Cl)cc3)nn2)cc1 (centres unmarked) , report its measured % Inhibition/Protection.
Result: 87.5

Ask: Given the entry CC(C)Cc1ccc(C(C)C(=O)OCc2cn(-c3ccc([N+](=O)[O-])cc3)nn2)cc1 (centres unmarked) , report its measured % Inhibition/Protection.
Result: 65.0

Ask: Given the entry C#CCOC(=O)C(C)c1ccc(CC(C)C)cc1 (centres unmarked) , report its measured % Inhibition/Protection.
Result: 71.8

Ask: Given the entry "COc1ccc2c(c1)c(CC(=O)OCc1cn(-c3ccc(Cl)cc3)nn1)c(C)n2C(=O)c1ccc(Cl)cc1" , report its measured % Inhibition/Protection.
Result: 46.3

Ask: Given the entry CC(C)Cc1ccc(C(C)C(=O)O)cc1 (centres unmarked) [Ibu, Ibuprofen, reference compound] , report its measured % Inhibition/Protection.
Result: 58.5

Ask: Given the entry CC(C)Cc1ccc(C(C)C(=O)OCc2cn(-c3ccc(F)cc3)nn2)cc1 (centres unmarked) , report its measured % Inhibition/Protection.
Result: 83.3

Ask: Given the entry "COc1ccc2c(c1)c(CC(=O)OCc1cn(-c3ccc(F)cc3)nn1)c(C)n2C(=O)c1ccc(Cl)cc1" , report its measured % Inhibition/Protection.
Result: 41.3

====

System: carrageenan induced paw edema
Assay: carrageenan-induced rat paw edema
Type: in vivo
Details: 24 h; 10 mg/kg indomethacin mol equivalent i.p.; ± standard error
Could you please report measured Mean Edema Thickness for the items listed next?
Please give a number only; it is taken to be in mm.

Ask: Given the entry C#CCOC(=O)C(C)c1ccc(CC(C)C)cc1 (stereo not shown) [Compound 3] , report its measured Mean Edema Thickness.
Result: 0.920

Ask: Given the entry CC(C)Cc1ccc(C(C)C(=O)O)cc1 (stereo not shown) [Ibu, Ibuprofen, reference compound] , report its measured Mean Edema Thickness.
Result: 0.817

Ask: Given the entry COc1ccc2c(c1)c(CC(=O)OCc1cn(-c3ccccc3Cl)nn1)c(C)n2C(=O)c1ccc(Cl)cc1 [Compound 8a] , report its measured Mean Edema Thickness.
Result: 0.614

Ask: Given the entry CC(C)Cc1ccc(C(C)C(=O)OCc2cn(-c3ccccc3Cl)nn2)cc1 (stereo not shown) [Compound 5a] , report its measured Mean Edema Thickness.
Result: 0.713

====

Tested on: hot plate latency
Assay: hot plate assay (central analgesic)
Type: in vivo, mice
Details: at 120 min compared to indomethacin
Could you please report measured Potency for the items listed next?

Ask: Please state recorded Potency (tested on hot plate latency) of "COc1ccc2c(c1)c(CC(=O)OCc1cn(-c3ccccc3Cl)nn1)c(C)n2C(=O)c1ccc(Cl)cc1"
Result: 90.8

Ask: Please state recorded Potency (tested on hot plate latency) of "COc1ccc(-n2cc(COC(=O)Cc3c(C)n(C(=O)c4ccc(Cl)cc4)c4ccc(OC)cc34)nn2)cc1"
Result: 117.7

Ask: Please state recorded Potency (tested on hot plate latency) of CC(C)Cc1ccc(C(C)C(=O)OCc2cn(-c3ccc(F)cc3)nn2)cc1 (stereo not shown)
Result: 31.9

Ask: Please state recorded Potency (tested on hot plate latency) of CC(C)Cc1ccc(C(C)C(=O)O)cc1 (stereo not shown) [Ibu, Ibuprofen, reference compound]
Result: 96.1

====

Test system: gastric mucosa
Settings: both, albino, mouse, in vivo, 3 days
Could you please report measured Ulcer Index for the items listed next?
The answer should be a number; do not append a unit.

Ask: Given the entry C#CCOC(=O)C(C)c1ccc(CC(C)C)cc1 (centres unmarked) [Compound 3] , report its measured Ulcer Index.
Result: 4.33

Ask: Given the entry COc1ccccc1-n1cc(COC(=O)C(C)c2ccc(CC(C)C)cc2)nn1 (centres unmarked) [Compound 5e] , report its measured Ulcer Index.
Result: 0

Ask: Given the entry CC(C)Cc1ccc(C(C)C(=O)OCc2cn(-c3ccccc3Cl)nn2)cc1 (centres unmarked) [Compound 5a] , report its measured Ulcer Index.
Result: 0

Ask: Given the entry Cc1ccc(-n2cc(COC(=O)C(C)c3ccc(CC(C)C)cc3)nn2)cc1 (centres unmarked) [Compound 5d] , report its measured Ulcer Index.
Result: 0

Ask: Given the entry CC(C)Cc1ccc(C(C)C(=O)OCc2cn(-c3ccc(Cl)cc3)nn2)cc1 (centres unmarked) [Compound 5b] , report its measured Ulcer Index.
Result: 0

====

System: acetic acid-induced abdominal writhing
Assay: acetic acid-induced abdominal writhing assay (peripheral analgesic)
Format: in vivo, mice
Settings: number of writhing counted for 30 min; 10 mg/kg indomethacin mol equivalent i.p.
ASSAY ENDPOINT: Writing Reflex ± SE
The answer should be a number; do not append a unit.

Ask: Please state recorded Writing Reflex ± SE (tested on acetic acid-induced abdominal writhing) of CC(C)Cc1ccc(C(C)C(=O)OCc2cn(-c3ccc([N+](=O)[O-])cc3)nn2)cc1 (centres unmarked) [Compound 5g]
Result: 14.0

Ask: Please state recorded Writing Reflex ± SE (tested on acetic acid-induced abdominal writhing) of C#CCOC(=O)C(C)c1ccc(CC(C)C)cc1 (centres unmarked) [Compound 3]
Result: 11.3

Ask: Please state recorded Writing Reflex ± SE (tested on acetic acid-induced abdominal writhing) of COc1ccc(-n2cc(COC(=O)C(C)c3ccc(CC(C)C)cc3)nn2)cc1 (centres unmarked) [Compound 5f]
Result: 8.0

Ask: Please state recorded Writing Reflex ± SE (tested on acetic acid-induced abdominal writhing) of COc1ccc2c(c1)c(CC(=O)O)c(C)n2C(=O)c1ccc(Cl)cc1 [Indo, Indomethacin, reference compound]
Result: 11.3

Ask: Please state recorded Writing Reflex ± SE (tested on acetic acid-induced abdominal writhing) of CC(C)Cc1ccc(C(C)C(=O)OCc2cn(-c3ccc(Cl)cc3)nn2)cc1 (centres unmarked) [Compound 5b]
Result: 5.0

Ask: Please state recorded Writing Reflex ± SE (tested on acetic acid-induced abdominal writhing) of COc1ccc2c(c1)c(CC(=O)OCc1cn(-c3ccc([N+](=O)[O-])cc3)nn1)c(C)n2C(=O)c1ccc(Cl)cc1 [Compound 8g]
Result: 1.5

Ask: Please state recorded Writing Reflex ± SE (tested on acetic acid-induced abdominal writhing) of COc1ccccc1-n1cc(COC(=O)C(C)c2ccc(CC(C)C)cc2)nn1 (centres unmarked) [Compound 5e]
Result: 14.7

Ask: Please state recorded Writing Reflex ± SE (tested on acetic acid-induced abdominal writhing) of Cc1ccc(-n2cc(COC(=O)C(C)c3ccc(CC(C)C)cc3)nn2)cc1 (centres unmarked) [Compound 5d]
Result: 7.0

Ask: Please state recorded Writing Reflex ± SE (tested on acetic acid-induced abdominal writhing) of COc1ccc2c(c1)c(CC(=O)OCc1cn(-c3ccc(F)cc3)nn1)c(C)n2C(=O)c1ccc(Cl)cc1 [Compound 8c]
Result: 23.5

Ask: Please state recorded Writing Reflex ± SE (tested on acetic acid-induced abdominal writhing) of COc1ccc2c(c1)c(CC(=O)OCc1cn(-c3ccc(Cl)cc3)nn1)c(C)n2C(=O)c1ccc(Cl)cc1 [Compound 8b]
Result: 21.5

Ask: Please state recorded Writing Reflex ± SE (tested on acetic acid-induced abdominal writhing) of COc1ccc(-n2cc(COC(=O)Cc3c(C)n(C(=O)c4ccc(Cl)cc4)c4ccc(OC)cc34)nn2)cc1 [Compound 8f]
Result: 13.3

Ask: Please state recorded Writing Reflex ± SE (tested on acetic acid-induced abdominal writhing) of CC(C)Cc1ccc(C(C)C(=O)OCc2cn(-c3ccccc3Cl)nn2)cc1 (centres unmarked) [Compound 5a]
Result: 6.7

Ask: Please state recorded Writing Reflex ± SE (tested on acetic acid-induced abdominal writhing) of CC(C)Cc1ccc(C(C)C(=O)O)cc1 (centres unmarked) [Ibu, Ibuprofen, reference compound]
Result: 16.6

Ask: Please state recorded Writing Reflex ± SE (tested on acetic acid-induced abdominal writhing) of COc1ccc2c(c1)c(CC(=O)OCc1cn(-c3ccc(C)cc3)nn1)c(C)n2C(=O)c1ccc(Cl)cc1 [Compound 8d]
Result: 15.0

Ask: Please state recorded Writing Reflex ± SE (tested on acetic acid-induced abdominal writhing) of CC(C)Cc1ccc(C(C)C(=O)OCc2cn(-c3ccc(F)cc3)nn2)cc1 (centres unmarked) [Compound 5c]
Result: 6.7

Ask: Please state recorded Writing Reflex ± SE (tested on acetic acid-induced abdominal writhing) of COc1ccc2c(c1)c(CC(=O)OCc1cn(-c3ccccc3OC)nn1)c(C)n2C(=O)c1ccc(Cl)cc1 [Compound 8e]
Result: 7.7

Ask: Please state recorded Writing Reflex ± SE (tested on acetic acid-induced abdominal writhing) of COc1ccc2c(c1)c(CC(=O)OCc1cn(-c3ccccc3Cl)nn1)c(C)n2C(=O)c1ccc(Cl)cc1 [Compound 8a]
Result: 20.3
